- Target Or Test System: Serine/threonine-protein kinase PAK 6 (Homo sapiens) (UniProt Q9NQU5)
- Sequence (Q9NQU5 whole entry, looked up): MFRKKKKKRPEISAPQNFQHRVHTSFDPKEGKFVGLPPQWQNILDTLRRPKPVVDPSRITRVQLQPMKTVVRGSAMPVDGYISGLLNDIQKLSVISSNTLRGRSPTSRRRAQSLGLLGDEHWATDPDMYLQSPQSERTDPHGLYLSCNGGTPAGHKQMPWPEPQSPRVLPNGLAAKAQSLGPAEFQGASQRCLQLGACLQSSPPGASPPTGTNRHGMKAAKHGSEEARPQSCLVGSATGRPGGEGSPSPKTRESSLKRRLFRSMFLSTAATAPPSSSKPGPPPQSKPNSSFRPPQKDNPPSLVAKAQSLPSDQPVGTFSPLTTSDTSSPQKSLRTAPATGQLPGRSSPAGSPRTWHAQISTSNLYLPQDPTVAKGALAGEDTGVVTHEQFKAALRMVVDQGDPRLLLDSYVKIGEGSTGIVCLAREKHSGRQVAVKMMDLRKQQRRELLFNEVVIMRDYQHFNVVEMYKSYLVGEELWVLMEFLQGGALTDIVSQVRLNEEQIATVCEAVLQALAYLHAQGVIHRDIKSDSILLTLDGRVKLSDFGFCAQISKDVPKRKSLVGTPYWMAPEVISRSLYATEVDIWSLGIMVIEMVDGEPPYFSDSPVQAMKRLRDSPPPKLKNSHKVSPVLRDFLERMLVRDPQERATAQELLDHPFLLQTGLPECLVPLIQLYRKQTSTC
Here the recorded ΔTm is given for each entry.
Expressed in °C, but write only the number.

Example entries and their recorded answers appear below.
{"columns": ["Compound", "ΔTm, °C"],
 "data": [
  ["CN(C)c1ccc(CC2C(=O)Nc3ccccc32)cc1 (stereo unspecified)", 0.1],
  ["Cc1cc2ncc(-c3ccccc3)nc2cc1C", 0],
  ["Cc1ccc(NC2=CC(=O)c3sc(C)nc3C2=O)cc1", -2.1]
]}

For the next question, use this compound.
Query block: Please report the recorded ΔTm for `CCN(CC)CCNC(=O)c1c(C)[nH]c(/C=C2\C(=O)Nc3ccc(F)cc32)c1C` .
Result block: 3.5
